This listing pairs compounds with measured DC50.
# target_desc: BCL-XL (Homo sapiens, UniProt Q07817)
# Construct: endogenous in cells; host or cells: MOLT-4
# Sequence (Q07817 whole entry): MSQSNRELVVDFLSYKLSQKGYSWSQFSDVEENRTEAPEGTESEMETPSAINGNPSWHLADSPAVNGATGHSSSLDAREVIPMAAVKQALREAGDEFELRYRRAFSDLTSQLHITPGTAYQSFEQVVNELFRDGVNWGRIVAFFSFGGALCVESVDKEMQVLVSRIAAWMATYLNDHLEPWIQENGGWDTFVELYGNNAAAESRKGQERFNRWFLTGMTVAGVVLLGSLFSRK
# test: BCL-XL degradation assay, western blot in MOLT-4 cells, 16 h
# Assay type: cell-based
# condition_parameters: western blot, MOLT-4 cells, 16 h; read-out: Bcl-xL WB in MOLT-4 degradation 16 h: Mean external-Abs DC50
quantity_kind: DC50

[[record]]
compound = "Cc1cc(N(CCN(C)C(=O)CCCCCC(=O)N[C@H](C(=O)N2C[C@H](O)C[C@H]2C(=O)N[C@@H](C)c2ccc(-c3scnc3C)cc2)C(C)(C)C)c2ccc(-c3cnn(CC4CCCCC4)c3C)c(C(=O)O)n2)nnc1Nc1nc2ccccc2s1"
quantity_kind = "DC50"
measurement = "100 to 500 nM"

[[record]]
compound = "Cc1ncsc1-c1ccc(CNC(=O)[C@@H]2C[C@@H](O)CN2C(=O)[C@@H](c2cc(N3CC4(CN(C(=O)CCCCC(=O)N(C)CC#Cc5ccc(OCCCc6ccc(N7CCc8cccc(C(=O)Nc9nc%10ccccc%10s9)c8C7)nc6C(=O)O)c(F)c5)C4)C3)no2)C(C)C)cc1"
quantity_kind = "DC50"
measurement = "10 to 100 nM"

[[record]]
compound = "Cc1ncsc1-c1ccc([C@H](C)NC(=O)[C@@H]2C[C@@H](O)CN2C(=O)[C@@H](NC(=O)CCc2cccc(F)c2OCCCc2sc(N3CCc4cccc(C(=O)Nc5nc6ccccc6s5)c4C3)nc2C(=O)O)C(C)(C)C)cc1"
quantity_kind = "DC50"
measurement = "> 1000 nM"

[[record]]
compound = "Cc1ncsc1-c1ccc([C@H](C)NC(=O)[C@@H]2C[C@@H](O)CN2C(=O)[C@@H](NC(=O)CCCCCC(=O)N2CCN(CC[C@@H](CSc3ccccc3)Nc3ccc(S(=O)(=O)NC(=O)c4ccc(N5CCC(C)(C)CC5)cc4)cc3S(=O)(=O)C(F)(F)F)CC2)C(C)(C)C)cc1"
quantity_kind = "DC50"
measurement = "> 1000 nM"

[[record]]
compound = "Cc1ncsc1-c1ccc([C@H](C)NC(=O)[C@@H]2C[C@@H](O)CN2C(=O)[C@@H](NC(=O)CCCC(=O)NCCOc2ccc(C(=O)Nc3nc4ccccc4s3)c3c2CCN(c2ccc(-c4cnn(CC5CCCCC5)c4C)c(C(=O)O)n2)C3)C(C)(C)C)cc1"
quantity_kind = "DC50"
measurement = "100 to 500 nM"

[[record]]
compound = "Cc1ncsc1-c1ccc([C@H](C)NC(=O)[C@@H]2C[C@@H](O)CN2C(=O)[C@@H](NC(=O)CCCCCCCC(=O)N(C)CC#Cc2cccc(F)c2OCCCc2sc(N3CCc4cccc(C(=O)Nc5nc6ccccc6s5)c4C3)nc2C(=O)O)C(C)(C)C)cc1"
quantity_kind = "DC50"
measurement = "10 to 100 nM"

[[record]]
compound = "Cc1ncsc1-c1ccc(CNC(=O)[C@@H]2C[C@@H](O)CN2C(=O)[C@@H](NC(=O)C2(F)CC2)C(C)(C)C)c(OCCCCCS(=O)(=O)NC(=O)c2nc(N3CCc4cccc(C(=O)Nc5nc6ccccc6s5)c4C3)ccc2-c2cnn(CC34CC5CC(CC(C5)C3)C4)c2C)c1"
quantity_kind = "DC50"
measurement = "< 10 nM"

[[record]]
compound = "Cc1ncsc1-c1ccc(CNC(=O)[C@@H]2C[C@@H](O)CN2C(=O)[C@@H](NC(=O)C2(F)CC2)C(C)(C)C)c(OCC2CCN(CC[C@H](CSc3ccccc3)Nc3ccc(S(=O)(=O)NC(=O)c4ccc(N5CCN(CC6=C(c7ccc(Cl)cc7)CCC(C)(C)C6)CC5)cc4)cc3S(=O)(=O)C(F)(F)F)CC2)c1"
quantity_kind = "DC50"
measurement = "< 10 nM"

[[record]]
compound = "Cc1ncsc1-c1ccc(CNC(=O)[C@@H]2C[C@@H](O)CN2C(=O)[C@@H](NC(=O)C2(F)CC2)C(C)(C)C)c(OCCCCCCCC(=O)N(C)CCCc2cccc(F)c2OCCCc2sc(N3CCc4cccc(C(=O)Nc5nc6ccccc6s5)c4C3)nc2C(=O)O)c1"
quantity_kind = "DC50"
measurement = "100 to 500 nM"

[[record]]
compound = "Cc1ncsc1-c1ccc([C@H](C)NC(=O)[C@@H]2C[C@@H](O)CN2C(=O)[C@@H](NC(=O)CCCCCCC(=O)N2CCN(CC3(C)CCC(c4ccc(Cl)cc4)=C(CN4CCN(c5ccc(C(=O)NS(=O)(=O)c6ccc(N[C@H](CCN7CCOCC7)CSc7ccccc7)c(S(=O)(=O)C(F)(F)F)c6)cc5)CC4)C3)CC2)C(C)(C)C)cc1 (stereo partly drawn) [I-399]"
quantity_kind = "DC50"
measurement = "< 10 nM"

[[record]]
compound = "Cc1ncsc1-c1ccc([C@H](C)NC(=O)[C@@H]2C[C@@H](O)CN2C(=O)[C@@H](c2cc(N3CC4(CN(c5ccc(S(=O)(=O)NC(=O)c6nc(N7CCc8cccc(C(=O)Nc9nc%10ccccc%10s9)c8C7)ccc6-c6cnn(CC7CCCCC7)c6C)cc5)C4)C3)no2)C(C)C)cc1"
quantity_kind = "DC50"
measurement = "< 10 nM"

[[record]]
compound = "Cc1ncsc1-c1ccc([C@H](C)NC(=O)[C@@H]2C[C@@H](O)CN2C(=O)[C@@H](NC(=O)CCCCCCCCC(=O)N2CCN(CC[C@H](CSc3ccccc3)Nc3ccc(S(=O)(=O)NC(=O)c4ccc(N5CCN(CC6=C(c7ccc(Cl)cc7)CCC(C)(C)C6)CC5)cc4)cc3S(=O)(=O)C(F)(F)F)CC2)C(C)(C)C)cc1"
quantity_kind = "DC50"
measurement = "100 to 500 nM"

[[record]]
compound = "Cc1ncsc1-c1ccc([C@H](C)NC(=O)[C@@H]2C[C@@H](O)CN2C(=O)[C@@H](NC(=O)CCc2ccc(S(=O)(=O)NC(=O)c3ccc(N4CCN(CC5=C(c6ccc(Cl)cc6)CCC(C)(C)C5)CC4)cc3)cc2)C(C)(C)C)cc1"
quantity_kind = "DC50"
measurement = "> 1000 nM"

[[record]]
compound = "Cc1ncsc1-c1ccc([C@H](C)NC(=O)[C@@H]2C[C@@H](O)CN2C(=O)[C@@H](NC(=O)CCCC(=O)N(C)CC#Cc2cccc(F)c2OCCCc2sc(N3CCc4cccc(C(=O)Nc5nc6ccccc6s5)c4C3)nc2C(=O)O)C(C)(C)C)cc1"
quantity_kind = "DC50"
measurement = "500 to 1000 nM"

[[record]]
compound = "Cc1ncsc1-c1ccc(CNC(=O)[C@@H]2C[C@@H](O)CN2C(=O)[C@H](c2cc(N3CC4(CN(C(=O)CCCCC(=O)N(C)CC#Cc5ccc(OCCCc6ccc(N7CCc8cccc(C(=O)Nc9nc%10ccccc%10s9)c8C7)nc6C(=O)O)c(F)c5)C4)C3)no2)C(C)C)cc1"
quantity_kind = "DC50"
measurement = "< 10 nM"

